Collected set of pIC50 measured with huPPARα (Homo sapiens) across studies.
Conceptually, pIC50 converts a concentration in mol/L into minus its log10.

Enquiry: Please tell me: pIC50 of "Cc1cc(OCCc2nc(-c3ccccc3)oc2C)ccc1OC(C)(C)C(=O)O" , system huPPARα (Homo sapiens)?
Return: 6.20

Enquiry: Please answer likewise for Cc1oc(-c2ccccc2)nc1CCOc1ccc(CC(C)(Oc2ccc(Cl)cc2)C(=O)O)cc1 (stereo not drawn)
Return: 6.94

Enquiry: Also need Cc1oc(-c2ccc(-c3ccccc3)cc2)nc1CCOc1ccc(CC(C)(Oc2ccc(C(C)(C)C)cc2)C(=O)O)cc1 (stereo not drawn) , thanks.
Return: 6.71

Enquiry: Can you check Cc1oc(-c2cccs2)nc1CCOc1ccc(CC(C)(Oc2ccccc2F)C(=O)O)cc1 (stereo not drawn) next?
Return: 7.12

Enquiry: Entry to check: "CCOc1ccc(CCNC(=O)COc2ccc(C[C@H](OC)C(=O)O)cc2)cc1"
Return: 6.44

Enquiry: Subsequent entry: CCC(Cc1ccc(OCCc2nc(-c3cccc(-c4cccs4)c3)oc2C)cc1)(Oc1ccccc1)C(=O)O (stereo not drawn)
Return: 6.51

Enquiry: Also, Cc1nc(-c2ccc(C(F)(F)F)cc2)sc1C(C)Oc1ccc2ccn(CC(=O)O)c2c1 (racemic) please.
Return: 5.65

Enquiry: Can you handle "COc1ccc(CCNC(=O)COc2ccc(C[C@H](OC)C(=O)O)cc2)cc1" next?
Return: 6.95

Enquiry: Follow-up entry: "Cc1oc(-c2ccc(-c3ccc[nH]3)cc2)nc1CCOc1ccc(OC(C)(C)C(=O)O)cc1"
Return: 6.27

Enquiry: Here is the next compound: Cc1oc(C2CCCCC2)nc1CCOc1ccc(CC(C)(Oc2ccc(OC(F)(F)F)cc2)C(=O)O)cc1 (stereo not drawn)
Return: 6.80

Enquiry: What do you have for Cc1cccc(OC(C)(Cc2ccc(OCCc3nc(-c4cccc(-c5ccccc5)c4)oc3C)cc2)C(=O)O)c1 (stereo not drawn) ?
Return: 6.74

Enquiry: What do you have for Cc1oc(-c2cccc(Br)c2)nc1CCOc1ccc(CC(C)(Oc2ccccc2)C(=O)O)cc1 (stereo not drawn) ?
Return: 7.20

Enquiry: What do we get for "Cc1oc(-c2ccc(-c3ccccc3)cc2)nc1CCOc1ccc(OC(C)(C)C(=O)O)c(Cc2ccccc2)c1" ?
Return: 6.85

Enquiry: Input "COc1ccccc1-c1ccc(-c2nc(CCOc3ccc(OC(C)(C)C(=O)O)cc3)c(C)o2)cc1"
Return: 6.46

Enquiry: Subsequent entry: "Cc1oc(-c2ccccc2)nc1CCOc1ccc(OC(C)(C)C(=O)O)cc1"
Return: 5.78

----------
Here is a set of molecules with reported IC50 for huPPARα (Homo sapiens), compiled from the literature.
All answers are understood in nM, so give the number only.

Enquiry: Enter reported IC50 observed with huPPARα (Homo sapiens) for "Cc1cc(OCCNC(=O)c2cnc(-c3ccc(C(F)(F)F)cc3)nc2C2CC2)ccc1OC(C)(C)C(=O)O"
Return: 24

Enquiry: Another molecule to check: Cc1cccc(OC(C)(Cc2ccc(OCCc3nc(C4CCCCC4)oc3C)cc2)C(=O)O)c1 (centres unmarked)
Return: 58

Enquiry: Can you check "CCc1cccc(-c2nc(CCOc3ccc(OC(C)(C)C(=O)O)cc3)c(C)o2)c1" next?
Return: 31

Enquiry: Subsequent entry: "Cc1oc(-c2cccc(Br)c2)nc1CCOc1ccc(OC(C)(C)C(=O)O)cc1"
Return: 75

Enquiry: Continue with Cc1oc(C2CCCCC2)nc1CCOc1ccc(CC(C)(Oc2ccc(Cl)cc2)C(=O)O)cc1 (centres unmarked)
Return: 53

Enquiry: Similarly, Cc1ccc(OC(C)(Cc2ccc(OCCc3nc(C4CCCCC4)oc3C)cc2)C(=O)O)cc1C (centres unmarked) ?
Return: 66

Enquiry: Another molecule to check: Cc1oc(-c2cccs2)nc1CCOc1ccc(CC(C)(Oc2ccc(F)cc2)C(=O)O)cc1 (centres unmarked)
Return: 67

Enquiry: One more molecule: "O=C(NCCS(=O)(=O)c1ccc(C(F)(F)F)cn1)c1ccc(B2C=CCCN2)cc1"
Return: 52
